Answer each item with its documented Oocyte electrophysiology 0.1 μM (ratio of currents in presence/absence of compound).
Tested System: rat α1β2γ2L type GABAA receptors expressed in Xenopus laevis oocytes (Rattus norvegicus (Rat), UniProt P62813+P63138, INS375LLRMFSFK)
Measurement Protocol: Potentiation of GABA-mediated chloride currents, oocyte electrophysiology
Assay type: cell-based
Cond: 0.1 μM compound, 2 μM GABA, ± SEM, N>=4
Answers are plain numbers.

// solved cases for Oocyte electrophysiology 0.1 μM (ratio of currents in presence/absence of compound) follow
# Compound, Experimental Value
data = [
    ("C[C@@]12C[C@@H]3CC[C@@H]4C[C@H](O)CC[C@@H]4[C@H]3C[C@H]1CCC2=O", 0.97),
    ("C[C@@]12CC3CCC4C[C@H](O)CCC4C3CC1CC[C@H]2C#N (some centres unmarked)", 0.92),
    ("C[C@]12CC(=O)CC1CC1C(CCC3C[C@H](O)CCC31)C2 (some centres unmarked)", 1.03),
]

Batch: Oocyte electrophysiology 0.1 μM (ratio of currents in presence/absence of compound) for all items listed.
1. C[C@]12C[C@H]3CC[C@@H]4C[C@@H](O)CC[C@H]4[C@@H]3C[C@@H]1CC/C2=C/C#N
2. C[C@]12C[C@H]3CC[C@@H]4C[C@@H](O)CC[C@H]4[C@@H]3C[C@@H]1CC[C@@H]2[N+](=O)[O-]
3. CC(=O)[C@H]1CCC2CC3C(CCC4C[C@H](O)CCC43)C[C@@]21C (some centres unmarked)
4. C[C@]12C[C@H]3CC[C@@H]4C[C@@H](O)CC[C@H]4[C@@H]3C[C@@H]1CC/C2=C\C#N
5. C[C@@]12CC[C@H](O)C[C@H]1CC[C@@H]1C[C@@]3(C)C(CC[C@@H]3C#N)CC12 (some centres unmarked)

Found:
1.49
1.68
1.32
1.64
1.93

Return reported Oocyte electrophysiology 0.1 μM (ratio of currents in presence/absence of compound) values for all items listed beneath this line.
1. C[C@@]12CC[C@H](O)C[C@@H]1CC[C@@H]1C[C@]3(C)C(=O)CCC3C[C@H]12 (some centres unmarked)
2. CC(=O)[C@@H]1CC[C@@H]2C[C@H]3[C@@H](CC[C@H]4C[C@H](O)CC[C@@H]43)C[C@]21C
3. C[C@@]12CC[C@@H](O)C[C@@H]1CC[C@H]1C[C@@]3(C)[C@H](CC[C@@]34CO4)C[C@@H]12
4. C[C@@]12CC3CCC4C[C@H](O)CCC4C3CC1CC[C@]21CO1 (some centres unmarked)
5. C[C@]12C[C@H]3CC[C@@H]4C[C@@H](O)CCC4C3CC1CC[C@@]21CO1 (some centres unmarked)

Found:
1: 0.85; 2: 1.02; 3: 2.08; 4: 1.01; 5: 1.91

Report Oocyte electrophysiology 0.1 μM (ratio of currents in presence/absence of compound) for each item below.
1. C[C@@]12CC3CC[C@H]4C[C@H](O)CCC4C3CC1CCC2=O (some centres unmarked)
2. C[C@]12C[C@H]3CC[C@@H]4C[C@@H](O)CC[C@H]4[C@@H]3C[C@@H]1CC[C@@H]2C#N
3. C[C@@]12CC[C@H](O)C[C@H]1CC[C@@H]1C[C@]3(C)C(C#N)=CCC3CC12 (some centres unmarked)
4. C[C@]12C[C@H]3CCC4C[C@@H](O)CC[C@H]4[C@@H]3C[C@@H]1CCC2=O (some centres unmarked)

Found:
1.10
1.51
2.25
1.11
